Hey, just so you know, these numbers are from patent US20240010913A1.

# assay-comment: Solubility of the product (qualitative)
# Assay type: physicochemical
readout-name: solubility in DMSO

The cases that follow already have their solubility in DMSO on record.
Request: What value of solubility in DMSO has been recorded for this entry: `COc1cccc2ccc(/C=C3\N=C(Nc4ccccc4)NC3=O)nc12`
Response: Soluble

Request: What value of solubility in DMSO has been recorded for this entry: `CN(Cc1ccccn1)c1cccc2ccc(/C=C3\N=C(Nc4ccccc4)NC3=O)nc12`
Response: Soluble

Request: What value of solubility in DMSO has been recorded for this entry: `O=C1NC(Nc2ccccc2)=N/C1=C\c1ccc2ccc3cccnc3c2n1`
Response: soluble

Request: What value of solubility in DMSO has been recorded for this entry: `CN(C)c1cccc2ccc(/C=C3\N=C(Nc4ccccc4)NC3=O)nc12`
Response: Soluble

Request: What value of solubility in DMSO has been recorded for this entry: `CN(C)CCN(C)c1cccc2ccc(/C=C3\N=C(Nc4ccccc4)NC3=O)nc12`
Response: Soluble

Request: What value of solubility in DMSO has been recorded for this entry: `O=C1N=C(Nc2ccccc2)N/C1=C\c1ccc2ccc3ccc(/C=C4\NC(Nc5ccccc5)=NC4=O)nc3c2n1`
Response: soluble

Okay, now this compound:
Request: What value of solubility in DMSO has been recorded for this entry: `O=C1NC(Nc2ccccc2)=N/C1=C\c1ccc2cccc(O)c2n1`
Response: Soluble
